species: Mus musculus; assay: Anticonvulsant activity against audiogenic seizures in DBA/2 mice in clonic phase.; format: functional
Answer each item with its documented ED50.
Give the number; µmol/kg is assumed, so skip it.

Exam item: # return recorded ED50 for entry CNC(=O)N/N=C(\c1ccc(N)cc1)c1cc2c(cc1CC(=O)OC)OCO2 (stereo in doubt; 29)
Marked response: 10.4

Exam item: Give a short answer stating reported ED50 for CCOC(=O)Cc1cc2c(cc1/C(=N/NC(=O)NC)c1ccc(N)cc1)OCO2 .
Marked response: 28.8

Exam item: Give the measured ED50 for CCNC(=O)N/N=C(\c1ccc(N)cc1)c1cc2c(cc1CC(=O)OC)OCO2
Marked response: 30.3

Exam item: Return ED50 (reported value) for this compound: CNC(=O)NC(=O)Cc1cc2c(cc1Cc1ccc(N)cc1)OCO2
Marked response: 9.28

Exam item: Report measured ED50; entry is CCCCNC(=O)N/N=C(\c1ccc(N)cc1)c1cc2c(cc1CC(=O)OC)OCO2
Marked response: 65

Exam item: Note down ED50 recorded for CNC(=O)NC(=O)Cc1ccc2c(c1)OCO2
Marked response: 87.8

Exam item: Look up and state reported ED50 for COC(=O)Cc1cc2c(cc1Cc1ccc(N)cc1)OCO2
Marked response: 54.3

Exam item: Write down ED50 measured for item CCCOC(=O)Cc1cc2c(cc1/C(=N/NC(=O)NC)c1ccc(N)cc1)OCO2
Marked response: 18

Exam item: Specify ED50 for CCCNC(=O)N/N=C(\c1ccc(N)cc1)c1cc2c(cc1CC(=O)OC)OCO2 and stop.
Marked response: 57.1

Exam item: For CCCCOC(=O)Cc1cc2c(cc1/C(=N/NC(=O)NCC)c1ccc(N)cc1)OCO2 , write its ED50.
Marked response: 53.1

Exam item: Return the recorded ED50 value; entry: CNC(=O)NC(=O)Cc1cc2c(cc1C(=O)c1ccc(N)cc1)OCO2
Marked response: 39.5

Exam item: Answer with reported ED50 of CCNC(=O)N/N=C(\c1ccc(N)cc1)c1cc2c(cc1CC(=O)OCC)OCO2
Marked response: 84.4

Exam item: Look up ED50 of CCCCOC(=O)Cc1cc2c(cc1/C(=N/NC(=O)NC)c1ccc(N)cc1)OCO2 and report it.
Marked response: 66.2

Exam item: Let me know recorded ED50 for CCCOC(=O)Cc1cc2c(cc1/C(=N/NC(=O)NCC)c1ccc(N)cc1)OCO2 , thanks.
Marked response: 55.5

====

experiment: Partition coefficient (logP); format: physicochemical; conditions: octanol/water; read-out: logP
Entry flag: 1 if logP reaches 3; 0 if it does not.

Exam item: Is reported logP greater than or equal to 3 here: CCCCNC(=O)N/N=C(\c1ccc(N)cc1)c1cc2c(cc1CC(=O)OC)OCO2
Marked response: 1

Exam item: Has CC1=NN=C(c2ccc(N)cc2)c2cc3c(cc2C1)OCO3 a recorded logP greater than or equal to 3?
Marked response: 1

Exam item: Quick check, logP >= 3? CNC(=O)NC(=O)Cc1ccc2c(c1)OCO2
Marked response: 0

Exam item: Is the recorded value of logP equal to or greater than 3 for this compound? CCCOC(=O)Cc1cc2c(cc1/C(=N/NC(=O)NC)c1ccc(N)cc1)OCO2
Marked response: 1

Exam item: Please tell me: is the compound CCCCNC(=O)N1N=C(c2ccc(N)cc2)c2cc3c(cc2CC1=O)OCO3 at or over 3 in terms of logP?
Marked response: 1

Exam item: Form field: logP at least 3? Entry: CCCNC(=O)N1N=C(c2ccc(N)cc2)c2cc3c(cc2CC1=O)OCO3
Marked response: 0

Exam item: Can CCCOC(=O)Cc1cc2c(cc1/C(=N/NC(=O)NCC)c1ccc(N)cc1)OCO2 be said to have logP at or above 3?
Marked response: 1

Exam item: Hi team, for CCCNC(=O)N/N=C(\c1ccc(N)cc1)c1cc2c(cc1CC(=O)OC)OCO2 , is the recorded logP at or above 3?
Marked response: 1

Exam item: Determine whether this compound has logP no lower than 3: CCNC(=O)N/N=C(\c1ccc(N)cc1)c1cc2c(cc1CC(=O)OCC)OCO2
Marked response: 1

Exam item: Please indicate if the recorded logP for CCOC(=O)Cc1cc2c(cc1/C(=N/NC(=O)NC)c1ccc(N)cc1)OCO2 meets or exceeds 3.
Marked response: 0

Cited source for all entries: ChEMBL document CHEMBL1135822
